Value source: patent US20190134153A1

# TARGET: Haspin(h) (Homo sapiens)
# Sequence (Q8TF76 1-798): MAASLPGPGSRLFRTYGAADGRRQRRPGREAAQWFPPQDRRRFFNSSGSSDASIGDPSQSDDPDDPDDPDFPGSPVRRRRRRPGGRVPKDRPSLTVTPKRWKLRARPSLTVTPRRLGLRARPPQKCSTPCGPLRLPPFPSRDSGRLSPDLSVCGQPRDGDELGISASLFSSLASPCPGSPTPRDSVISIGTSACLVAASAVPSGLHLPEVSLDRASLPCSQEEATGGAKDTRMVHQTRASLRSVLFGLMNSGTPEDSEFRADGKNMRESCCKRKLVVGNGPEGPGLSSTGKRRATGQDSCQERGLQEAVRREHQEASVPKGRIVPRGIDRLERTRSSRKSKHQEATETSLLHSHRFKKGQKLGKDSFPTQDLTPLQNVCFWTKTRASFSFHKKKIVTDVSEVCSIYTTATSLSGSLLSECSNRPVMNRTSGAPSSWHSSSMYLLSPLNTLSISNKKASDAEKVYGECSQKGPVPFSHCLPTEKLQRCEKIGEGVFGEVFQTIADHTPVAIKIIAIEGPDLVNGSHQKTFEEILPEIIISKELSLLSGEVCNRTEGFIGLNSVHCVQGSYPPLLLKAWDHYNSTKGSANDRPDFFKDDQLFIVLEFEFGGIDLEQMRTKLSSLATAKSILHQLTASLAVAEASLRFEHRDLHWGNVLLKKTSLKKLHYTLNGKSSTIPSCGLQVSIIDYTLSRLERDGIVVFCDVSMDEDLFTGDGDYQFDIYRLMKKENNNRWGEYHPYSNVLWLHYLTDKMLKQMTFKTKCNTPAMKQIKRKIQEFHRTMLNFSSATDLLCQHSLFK
# METHOD_DESCRIPTION: Kinase Profiling Assay
# Format: biochemical
# PARTICULARS: 100 μM
ENDPOINT: % activity (%)

INSERT INTO results (residue_string, unit_tag, measured) VALUES
  ('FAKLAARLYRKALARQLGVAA [MMI-0300]', '%', 48),
  ('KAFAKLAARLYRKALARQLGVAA [MMI-0400]', '%', 36),
  ('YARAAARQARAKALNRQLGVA [MMI-0200]', '%', 71),
  ('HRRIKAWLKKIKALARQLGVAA [MMI-0500]', '%', 25);

----------
# TARGET: Pyk2(h) (Homo sapiens, UniProt Q14289)
# Sequence (Q14289 whole entry): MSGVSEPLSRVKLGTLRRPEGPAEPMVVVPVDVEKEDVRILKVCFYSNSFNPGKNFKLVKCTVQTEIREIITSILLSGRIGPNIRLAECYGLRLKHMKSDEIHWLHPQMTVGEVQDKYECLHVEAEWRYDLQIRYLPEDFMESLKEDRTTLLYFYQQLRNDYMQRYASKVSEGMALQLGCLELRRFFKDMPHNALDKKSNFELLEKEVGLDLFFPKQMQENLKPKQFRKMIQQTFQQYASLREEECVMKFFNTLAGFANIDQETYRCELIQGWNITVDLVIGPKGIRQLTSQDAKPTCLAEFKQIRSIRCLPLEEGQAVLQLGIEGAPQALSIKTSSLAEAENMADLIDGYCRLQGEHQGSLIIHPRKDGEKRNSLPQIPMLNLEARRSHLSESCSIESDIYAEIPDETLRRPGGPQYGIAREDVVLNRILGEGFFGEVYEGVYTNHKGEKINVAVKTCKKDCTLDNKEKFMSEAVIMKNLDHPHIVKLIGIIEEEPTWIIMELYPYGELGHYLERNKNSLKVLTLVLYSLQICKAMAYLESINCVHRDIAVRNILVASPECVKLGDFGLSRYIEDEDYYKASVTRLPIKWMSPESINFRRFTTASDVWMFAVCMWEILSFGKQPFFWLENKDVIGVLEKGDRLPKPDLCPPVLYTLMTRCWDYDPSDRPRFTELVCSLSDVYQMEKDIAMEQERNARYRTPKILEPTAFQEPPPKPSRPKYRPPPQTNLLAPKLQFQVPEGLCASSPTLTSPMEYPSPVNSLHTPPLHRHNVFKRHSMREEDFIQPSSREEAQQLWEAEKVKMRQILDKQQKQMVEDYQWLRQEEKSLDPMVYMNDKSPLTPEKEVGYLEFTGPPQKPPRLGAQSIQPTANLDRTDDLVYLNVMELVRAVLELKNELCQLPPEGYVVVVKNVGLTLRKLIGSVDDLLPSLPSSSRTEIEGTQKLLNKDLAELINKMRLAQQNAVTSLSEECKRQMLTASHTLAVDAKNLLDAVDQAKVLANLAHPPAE
# METHOD_DESCRIPTION: Kinase Profiling Assay
# Assay type: biochemical
# PARTICULARS: 100 μM
ENDPOINT: % activity (%)

INSERT INTO assay_data (residue_string, measured) VALUES
  ('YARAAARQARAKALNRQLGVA [MMI-0200]', 127),
  ('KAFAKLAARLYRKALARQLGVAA [MMI-0400]', 34),
  ('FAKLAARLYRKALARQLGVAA [MMI-0300]', 47),
  ('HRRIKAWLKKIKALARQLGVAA [MMI-0500]', 46);

----------
# TARGET: EphA7(h) (Homo sapiens)
# Sequence (Q15375 28-998): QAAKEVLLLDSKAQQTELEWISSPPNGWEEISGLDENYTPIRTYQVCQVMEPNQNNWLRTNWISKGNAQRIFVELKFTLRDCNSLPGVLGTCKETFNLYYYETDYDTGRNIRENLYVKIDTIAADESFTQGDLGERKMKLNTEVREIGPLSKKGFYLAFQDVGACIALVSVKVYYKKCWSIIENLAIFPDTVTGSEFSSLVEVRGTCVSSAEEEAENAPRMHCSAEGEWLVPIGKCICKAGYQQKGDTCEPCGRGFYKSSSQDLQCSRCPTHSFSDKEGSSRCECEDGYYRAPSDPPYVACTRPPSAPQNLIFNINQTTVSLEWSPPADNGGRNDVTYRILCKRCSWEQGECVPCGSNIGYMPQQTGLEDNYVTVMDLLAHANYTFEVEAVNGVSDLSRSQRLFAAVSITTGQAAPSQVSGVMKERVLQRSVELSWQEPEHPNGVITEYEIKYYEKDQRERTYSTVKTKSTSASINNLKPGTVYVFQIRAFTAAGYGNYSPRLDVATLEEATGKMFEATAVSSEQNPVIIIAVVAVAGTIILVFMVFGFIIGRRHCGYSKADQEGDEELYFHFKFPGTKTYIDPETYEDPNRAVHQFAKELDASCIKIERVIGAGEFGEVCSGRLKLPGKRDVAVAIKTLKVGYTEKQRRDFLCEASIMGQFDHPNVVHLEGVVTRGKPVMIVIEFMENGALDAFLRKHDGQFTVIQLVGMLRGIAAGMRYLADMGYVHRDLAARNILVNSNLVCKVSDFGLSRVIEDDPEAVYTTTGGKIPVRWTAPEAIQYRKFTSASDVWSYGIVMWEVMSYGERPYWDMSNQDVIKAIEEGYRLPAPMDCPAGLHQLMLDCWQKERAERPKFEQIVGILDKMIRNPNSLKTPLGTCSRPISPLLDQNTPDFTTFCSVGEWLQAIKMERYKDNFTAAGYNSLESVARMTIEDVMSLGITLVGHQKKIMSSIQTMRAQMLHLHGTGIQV
# METHOD_DESCRIPTION: Kinase Profiling Assay
# Assay type: biochemical
# PARTICULARS: 100 μM
ENDPOINT: % activity (%)

INSERT INTO assay_data (residue_string, target, unit_tag, measured) VALUES
  ('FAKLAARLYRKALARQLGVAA [MMI-0300]', 'EphA7(h) (Homo sapiens)', '%', 159),
  ('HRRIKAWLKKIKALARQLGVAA [MMI-0500]', 'EphA7(h) (Homo sapiens)', '%', 189),
  ('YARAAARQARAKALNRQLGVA [MMI-0200]', 'EphA7(h) (Homo sapiens)', '%', 220),
  ('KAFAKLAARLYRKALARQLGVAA [MMI-0400]', 'EphA7(h) (Homo sapiens)', '%', 222);

----------
# TARGET: PKCζ(h) (Homo sapiens, UniProt Q05513)
# Sequence (Q05513 1-592): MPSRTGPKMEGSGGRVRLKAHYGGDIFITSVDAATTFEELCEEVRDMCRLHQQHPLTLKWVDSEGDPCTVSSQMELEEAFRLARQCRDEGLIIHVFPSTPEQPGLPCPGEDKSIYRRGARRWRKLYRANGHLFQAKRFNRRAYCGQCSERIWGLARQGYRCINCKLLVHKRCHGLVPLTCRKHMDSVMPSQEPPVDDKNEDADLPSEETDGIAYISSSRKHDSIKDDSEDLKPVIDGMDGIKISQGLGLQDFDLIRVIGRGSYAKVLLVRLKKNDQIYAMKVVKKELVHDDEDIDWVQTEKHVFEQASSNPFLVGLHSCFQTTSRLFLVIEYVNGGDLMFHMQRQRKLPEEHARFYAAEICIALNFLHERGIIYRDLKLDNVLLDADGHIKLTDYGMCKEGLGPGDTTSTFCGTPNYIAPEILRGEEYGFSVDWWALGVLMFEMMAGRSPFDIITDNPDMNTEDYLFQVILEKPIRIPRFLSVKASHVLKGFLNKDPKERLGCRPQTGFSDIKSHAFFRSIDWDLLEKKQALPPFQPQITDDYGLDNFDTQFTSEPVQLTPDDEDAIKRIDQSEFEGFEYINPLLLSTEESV
# METHOD_DESCRIPTION: Kinase Profiling Assay
# Format: biochemical
# PARTICULARS: 100 μM
Item-by-item account of % activity
ENDPOINT: % activity (%)

INSERT INTO measurements (residue_string, endpoint, unit_tag, measured) VALUES
  ('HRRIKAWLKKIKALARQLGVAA [MMI-0500]', '% activity', '%', 7),
  ('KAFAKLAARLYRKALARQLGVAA [MMI-0400]', '% activity', '%', 75),
  ('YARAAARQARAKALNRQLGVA [MMI-0200]', '% activity', '%', 98),
  ('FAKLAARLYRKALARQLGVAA [MMI-0300]', '% activity', '%', 81);

----------
# TARGET: MKK6(h) (Homo sapiens)
# Sequence (P52564 1-334): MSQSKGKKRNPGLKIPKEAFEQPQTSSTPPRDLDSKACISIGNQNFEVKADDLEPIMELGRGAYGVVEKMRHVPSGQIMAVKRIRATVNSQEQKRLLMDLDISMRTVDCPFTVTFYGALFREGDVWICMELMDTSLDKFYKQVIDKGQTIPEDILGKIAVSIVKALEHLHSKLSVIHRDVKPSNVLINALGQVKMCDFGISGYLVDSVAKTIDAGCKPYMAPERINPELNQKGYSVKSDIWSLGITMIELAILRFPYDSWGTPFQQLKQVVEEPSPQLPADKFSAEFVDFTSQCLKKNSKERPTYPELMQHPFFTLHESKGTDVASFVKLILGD
# METHOD_DESCRIPTION: Kinase Profiling Assay
# Format: biochemical
# PARTICULARS: 100 μM
ENDPOINT: % activity (%)

INSERT INTO assay_data (residue_string, endpoint, unit_tag, measured) VALUES
  ('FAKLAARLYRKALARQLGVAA [MMI-0300]', '% activity', '%', 48),
  ('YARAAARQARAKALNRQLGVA [MMI-0200]', '% activity', '%', 98),
  ('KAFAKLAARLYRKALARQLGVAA [MMI-0400]', '% activity', '%', 44),
  ('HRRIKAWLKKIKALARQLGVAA [MMI-0500]', '% activity', '%', 18);

----------
# TARGET: PAK2(h) (Homo sapiens, UniProt Q13177)
# Sequence (Q13177 whole entry): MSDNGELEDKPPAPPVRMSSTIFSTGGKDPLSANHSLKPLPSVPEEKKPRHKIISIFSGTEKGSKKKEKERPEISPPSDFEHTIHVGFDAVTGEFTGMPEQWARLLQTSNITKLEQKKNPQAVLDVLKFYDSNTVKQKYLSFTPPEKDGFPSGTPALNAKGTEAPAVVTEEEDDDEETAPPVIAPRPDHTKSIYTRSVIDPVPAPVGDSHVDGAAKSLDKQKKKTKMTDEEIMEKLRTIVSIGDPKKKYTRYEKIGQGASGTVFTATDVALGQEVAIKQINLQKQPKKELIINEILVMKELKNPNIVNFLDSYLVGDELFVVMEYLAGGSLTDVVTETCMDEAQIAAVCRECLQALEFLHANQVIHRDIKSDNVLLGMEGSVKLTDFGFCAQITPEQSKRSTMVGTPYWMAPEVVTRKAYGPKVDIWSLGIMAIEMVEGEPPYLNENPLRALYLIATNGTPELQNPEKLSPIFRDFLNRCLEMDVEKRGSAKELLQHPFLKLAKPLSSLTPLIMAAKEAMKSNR
# METHOD_DESCRIPTION: Kinase Profiling Assay
# Type: biochemical
# PARTICULARS: 100 μM
ENDPOINT: % activity (%)

INSERT INTO results (residue_string, measured) VALUES
  ('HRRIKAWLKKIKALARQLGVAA [MMI-0500]', 44),
  ('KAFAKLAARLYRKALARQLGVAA [MMI-0400]', 59),
  ('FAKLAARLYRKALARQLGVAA [MMI-0300]', 65),
  ('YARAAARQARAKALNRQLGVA [MMI-0200]', 69);

----------
Item-by-item account of % activity
# TARGET: Tec(h) activated (Homo sapiens)
# Sequence (P42680 1-631): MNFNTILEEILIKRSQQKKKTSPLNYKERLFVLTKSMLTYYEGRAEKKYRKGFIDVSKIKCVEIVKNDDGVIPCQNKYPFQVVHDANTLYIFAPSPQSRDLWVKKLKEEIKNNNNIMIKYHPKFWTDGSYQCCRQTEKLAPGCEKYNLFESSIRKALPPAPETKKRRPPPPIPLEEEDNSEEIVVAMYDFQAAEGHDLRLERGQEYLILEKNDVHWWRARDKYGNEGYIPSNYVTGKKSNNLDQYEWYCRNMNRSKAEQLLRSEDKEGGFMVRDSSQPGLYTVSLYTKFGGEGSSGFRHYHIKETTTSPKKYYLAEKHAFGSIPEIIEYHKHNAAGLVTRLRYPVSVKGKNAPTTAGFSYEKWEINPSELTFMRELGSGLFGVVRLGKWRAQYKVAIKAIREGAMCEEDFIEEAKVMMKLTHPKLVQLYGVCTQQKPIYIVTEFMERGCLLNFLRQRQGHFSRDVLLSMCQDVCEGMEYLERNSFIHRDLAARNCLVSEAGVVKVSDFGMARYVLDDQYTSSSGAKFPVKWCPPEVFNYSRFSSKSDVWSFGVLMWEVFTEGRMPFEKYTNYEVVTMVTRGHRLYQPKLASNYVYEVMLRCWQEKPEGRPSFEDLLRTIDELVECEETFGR
# METHOD_DESCRIPTION: Kinase Profiling Assay
# Format: biochemical
# PARTICULARS: 100 μM
ENDPOINT: % activity (%)

INSERT INTO assay_data (residue_string, endpoint, measured) VALUES
  ('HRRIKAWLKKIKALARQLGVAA [MMI-0500]', '% activity', 33),
  ('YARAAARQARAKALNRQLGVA [MMI-0200]', '% activity', 77),
  ('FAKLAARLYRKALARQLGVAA [MMI-0300]', '% activity', 56),
  ('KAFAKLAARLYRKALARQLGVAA [MMI-0400]', '% activity', 29);
